Organism: Homo sapiens
Test: Stability in human plasma assessed as hydrolysis half life
readout_type: half-life (min)

Reference set, count: 3
CCCN(CCOC(=O)c1ccccc1OC(C)=O)CCO[N+](=O)[O-] | 0.65
CC(=O)Oc1ccccc1C(=O)OCCN(CCO[N+](=O)[O-])CCO[N+](=O)[O-] | 1.12
CC(=O)Oc1ccccc1C(=O)OCCO[N+](=O)[O-] | 1.6

(P) CC(=O)Oc1ccccc1C(=O)OCC(=O)N(CCO[N+](=O)[O-])CC[N+](=O)[O-]
(Q) CC(=O)Oc1ccccc1C(=O)OCCN(C)CCO[N+](=O)[O-]
When the recorded half-life values are compared, which is smaller: that of P or that of Q ? In your reply, give the label of the chosen option. Q
(Q: 0.35 min, P: 6.12 min)

---

Organism: Homo sapiens
Test: Stability in human plasma assessed as hydrolysis half life
readout_type: half-life (min)

Field: example entries. Status: answers known.
CCN(CCOC(=O)c1ccccc1OC(C)=O)CCO[N+](=O)[O-] | 1.05
CCN(CCO[N+](=O)[O-])C(=O)COC(=O)c1ccccc1OC(C)=O | 1.03
CC(=O)Oc1ccccc1C(=O)OC(C)CO[N+](=O)[O-] (stereo unspecified) | 1.47
CC(=O)Oc1ccccc1C(=O)OCC(=O)N(C)CCO[N+](=O)[O-] | 1.17

(A) CC(=O)Oc1ccccc1C(=O)OCCCO[N+](=O)[O-]
(B) CCCN(CCO[N+](=O)[O-])C(=O)COC(=O)c1ccccc1OC(C)=O
Response body: label of entry with the larger half-life; valid values A , B . Please indicate the selected item by its label. A
